Taken from PubChem BioAssay (NCATS).

Assign max response to each entry below.
System: KB-3-1
Assay: Cytotoxic Profiling of Annotated Libraries Using Quantitative High-Throughput Screening (AID 1296008); also: % is scaled to controls: 0 for no effect and ±100 for the full control effect; nearly all actives have a fitted effect of over 60% in size
Details: Five cell lines viability, CellTiter-Glo ATP luminescence, 48-72 h; stronger effect = lower value
Results filed as inconclusive are left out.
Give bare numbers, in %.

{"columns": ["compound", "study.target", "readout.units", "max response"],
 "data": [
  ["Cc1ccc(C2(C(=O)N3CCC(n4nc(-c5ccccc5)oc4=O)CC3)CC2)cc1", "KB-3-1", "%", -8.37]
]}

Provide max response for all items below, preserving their order.
1. C/C=C(\C)C(=O)O[C@@H]1[C@@H](C)[C@]2(O)[C@@H]3C=C(C)C(=O)[C@H]3CC(CO)=C[C@H]2C2C(C)(C)[C@@]21OC(=O)C(C)CC (stereo not given in full)
2. COc1ccc(C(=O)Nc2c(Cl)cncc2Cl)cc1OC1CCCC1

[A]
1: 0.342; 2: -14.8

Return reported max response values for all items listed beneath this line.
1. Cn1ncnc1[C@H]1c2n[nH]c(=O)c3cc(F)cc(c23)N[C@@H]1c1ccc(F)cc1
2. CCC(c1ccccc1)c1noc(CCN(CC)CC)n1 (stereo not given)
3. N[C@@H](C(=O)N[C@H]1C(=O)N2C(C(=O)O)=C(Cl)CC[C@H]12)c1ccccc1
4. CC1(S(=O)(=O)O)CC(=O)c2ccccc2C1=O (stereo not given)

[A]
[-8.81, -6.24, -8.22, 5.99]

For every listed record, write down its max response.
1. Cc1cc2c(N3CCCC3)nc(N3CCCC3)nc2n1C
2. O=C(NCCCN1CCC2(CC1)OCc1ccccc12)[C@H]1CCCN1Cc1ccccc1
3. CC(C)[C@@H](c1ccc(C(F)(F)F)cc1CN(Cc1cc(C(F)(F)F)cc(C(F)(F)F)c1)c1nnn(C)n1)N1CCC(C(=O)O)CC1

[A]
[-0.182, -7.1, -11.9]

* * *

Target: Catechol O-methyltransferase (Homo sapiens) (UniProt P21964)
Sequence (P21964 whole entry, looked up): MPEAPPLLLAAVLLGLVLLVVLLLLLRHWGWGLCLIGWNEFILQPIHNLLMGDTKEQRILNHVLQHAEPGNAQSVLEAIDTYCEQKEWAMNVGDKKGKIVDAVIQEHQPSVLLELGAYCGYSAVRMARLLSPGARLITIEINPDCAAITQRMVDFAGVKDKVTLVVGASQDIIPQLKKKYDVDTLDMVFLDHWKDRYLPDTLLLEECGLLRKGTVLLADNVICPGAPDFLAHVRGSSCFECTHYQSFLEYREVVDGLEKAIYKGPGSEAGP
Test: Confirmatory Screen for Target Class Profiling of Small Molecule Inhibitors of Methyltransferases (AID 1745852)
Details: MTase-Glo luminescence, SAH detection, recombinant enzyme; measured here: COMT max response; stronger effect = lower value
readout.kind: activity (%)
Give bare numbers, in %.

{"columns": ["molecule", "readout.kind", "readout.units", "numeric.value"],
 "data": [
  ["C[C@H](Nc1cc2c(-c3ccc4c(c3)OCO4)noc2cn1)c1ccccc1", "activity", "%", -8.55],
  ["C=C1C(=O)OC2/C=C(/C)C3=CC(=O)C(C)(CC(OC(=O)/C(C)=C/COC(C)=O)C12)O3 (stereo unspecified)", "activity", "%", -88.1],
  ["Cc1sc2c(c1C)C(c1ccc(Cl)cc1)=N[C@H](CC(=O)NCCCCNC(=O)COc1cccc3c1C(=O)N([C@H]1CCC(=O)NC1=O)C3=O)c1nnc(C)n1-2", "activity", "%", -0.126]
]}

Provide activity values for the following items, in order.
1. Cc1ccc(CNc2ncnc3ccc(-c4ccc(CO)o4)cc23)o1
2. CN(C)CCCn1cc(C2=C(c3c[nH]c4ccccc34)C(=O)NC2=O)c2ccccc21
3. COc1cc(N2CCC(N)CC2)ccc1Nc1ncc(Cl)c(-c2c[nH]c3ccccc23)n1

[A]
1. -5.85
2. -45.6
3. -32.1

* * *

Assay: qHTS drug screen for cell cycle checkpoint inhibitors in PARPi-resistant BRCA-mutant ovarian cancer cell lines. (AID 1963452)
Conditions: PEO1/OlaR viability, CellTiter-Glo luminescence, 96 h; measured here: PEO4 Z-AUC; stronger effect = lower value
Excerpt: Women's Malignancies Branch, Center for Cancer Research (CCR), National Cancer Institute (NCI), National Institutes of Health (NIH), Bethesda, MD Poly (ADP-ribose) polymerase inhibitors (PARPis) have changed the treatment paradigm in breast cancer gene (BRCA) - mutant high-grade serous ovarian carcinoma (HGSC). […] 6; Detection; Luminescence, PHERAstar (BMG Labtech) plate reader. […] 6. Luminescence readings were taken using PHERAstar (BMG Labtech). […]
readout.kind: Z-AUC
Numbers only.

Reference set (5 entries):
{"columns": ["compound", "Z-AUC"],
 "data": [
  ["C=CC(=O)Nc1cccc(Nc2nc(Nc3ccc(OCCOC)cc3)ncc2F)c1", -1.08],
  ["Cc1cnc(-c2ccccc2C(C)C)nc1NCc1ccc(-n2ccnn2)cc1", 1.31],
  ["C[C@@H](Nc1ncnc2[nH]c(-c3ccc(O)cc3)cc12)c1ccccc1", 0.296],
  ["O=C(CCl)Nc1cccc(NC2=NS(=O)(=O)c3ccccc32)c1", -0.526],
  ["O=C(NCC(=O)N1CCCC1)Nc1ccc2cnccc2c1", -1.01]
]}

Batch lookup, Z-AUC per entry.
1. Cc1c(F)ccc(C(=O)Nc2cc([N+](=O)[O-])ccc2N2CCN(C)CC2)c1Cl
2. OC(c1ccc(-c2ccc(CN3CCN(Cc4ccncc4)CC3)cc2)c(F)c1)(C(F)(F)F)C(F)(F)F
3. C[C@@H]1COCCN1c1cc(=O)n2c(n1)N(Cc1cncc(Cl)c1)[C@H](C(F)(F)F)CC2
4. CCNC1(C(N)=O)CCN(c2ncnc3c2nc(-c2ccccc2Cl)n3-c2ccc(Cl)cc2)CC1
5. Cc1cccc(CC(=O)N2CCc3c2ccc(-c2cn(C)c4ncnc(N)c24)c3F)n1

[A]
-0.0381
-0.000497
-0.0495
0.247
-0.572

Batch request: Z-AUC per item, same order as input.
1. CC[C@@H](C)Nc1cc(C(=O)NC2CC3CC[C@@H](C2)N3c2ccc(C(=O)C3CC3)cn2)c(C)cc1C(N)=O (stereo partly drawn)
2. C=CC(=O)Nc1cccc(Nc2nc(Nc3ccc(NC4CN(CCF)C4)cc3OC)ncc2C(F)(F)F)c1
3. CN1C(=O)c2sccc2N(C)c2nc(Nc3ccc(S(N)(=O)=O)cc3)ncc21

[A]
[-1.25, 0.584, -1.18]

* * *

Test system: CAOV3
Assay: Primary qHTS to identify gynecologic anti-cancer compounds using libraries of approved drugs and bioactive compounds (AID 1345084); also: % is scaled to controls: 0 for no effect and ±100 for the full control effect; nearly all actives have a fitted effect of over 55% in size
Details: Gynecologic cancer cell panel viability, ATPlite luminescence, 48 h; series mostly up to 57.5 µM
Records with an inconclusive call do not appear. Active and inactive are the calls of the source. The call rests on the fitted dose curve; in most records, active means well fitted cell-killing curve with a large enough effect; inconclusive means small, poorly fitted or top-dose-only effect, or effect the other way; inactive means flat fitted curve, though single readings scatter.
The reply should be one of these categories: active, inactive

[Q] Test call, this compound: `CN1CCN(C2=Nc3ccccc3Nc3ccc(Cl)cc32)CC1`
[A] inactive

* * *

Would you mind telling me the reported max response of each entry?
System: NIH3T3
Experiment: Cytotoxic Profiling of Annotated Libraries Using Quantitative High-Throughput Screening (AID 1296008); also: % is scaled to controls: 0 for no effect and ±100 for the full control effect; nearly all actives have a fitted effect of over 60% in size
Conditions: Five cell lines viability, CellTiter-Glo ATP luminescence, 48-72 h; stronger effect = lower value
Inconclusive results are not listed.
Numbers only, in %.

{"columns": ["compound", "study.target", "readout.units", "numeric.value"],
 "data": [
  ["CC1(C)CC[C@]2(C(=O)O[C@@H]3O[C@H](CO)[C@@H](O)[C@H](O)[C@H]3O)CC[C@]3(C)C(=CCC4[C@@]5(C)CC[C@H](O[C@@H]6O[C@H](C(=O)O)[C@H](O)[C@H](O)[C@H]6O)C(C)(C)C5CC[C@]43C)[C@@H]2C1 (stereo not given in full)", "NIH3T3", "%", -2.05],
  ["N#Cc1cccc(C(=O)Nc2cc(-c3ccccc3)nn2-c2ccccc2)c1", "NIH3T3", "%", -3.88],
  ["CC(=O)OC[C@]12[C@H](OC(C)=O)C(=O)[C@@H]3[C@@H](O)[C@@]14O[C@@]3(C)COC(=O)c1cccnc1[C@@H](C)[C@H](C)C(=O)O[C@@H]([C@H](O)[C@@H]2OC(C)=O)[C@]4(C)O", "NIH3T3", "%", -17.4],
  ["COC1C=C(C)C(O)(CO)C2(C)CCCC(C)(C)C12 (stereo not given)", "NIH3T3", "%", -0.263]
]}

[Q] Look up max response of C=C(C)[C@@H]1CC[C@]2(C(=O)O)CC[C@]3(C(=O)O)[C@H](CCC4[C@@]5(C)CCC(=O)C(C)(C)C5CC[C@]43C)C12 (stereo not given in full) and report it.
[A] -2.4

* * *

Target: Cytochrome P450 2C9 (Homo sapiens) (UniProt P11712)
Sequence (P11712 whole entry, looked up): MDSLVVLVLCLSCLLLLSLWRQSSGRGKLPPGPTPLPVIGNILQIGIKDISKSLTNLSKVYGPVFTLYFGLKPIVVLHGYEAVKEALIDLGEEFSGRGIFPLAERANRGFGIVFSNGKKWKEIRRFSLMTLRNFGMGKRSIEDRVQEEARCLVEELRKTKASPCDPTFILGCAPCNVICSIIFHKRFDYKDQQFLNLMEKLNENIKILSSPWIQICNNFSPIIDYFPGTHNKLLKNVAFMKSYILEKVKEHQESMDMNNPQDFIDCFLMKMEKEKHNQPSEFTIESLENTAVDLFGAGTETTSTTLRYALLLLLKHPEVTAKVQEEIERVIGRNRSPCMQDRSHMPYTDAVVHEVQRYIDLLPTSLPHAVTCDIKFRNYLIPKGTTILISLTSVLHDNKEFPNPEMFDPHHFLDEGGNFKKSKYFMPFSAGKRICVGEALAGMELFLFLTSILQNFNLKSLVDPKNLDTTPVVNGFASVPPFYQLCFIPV
Test: Cytochrome P450 family 2 subfamily C member 9 (CYP2C9) small molecule antagonists: luciferase biochemical (cell-free) qHTS assay (AID 1645842); also: nearly all actives have a fitted effect of over 55% in size; also: potency is read from the fitted curve at half-maximal effect
Settings: P450-Glo CYP2C9 enzyme assay, luciferin luminescence; series mostly up to 57.4 µM
Description: National Center for Advancing Translational Sciences [NCATS] Assay Overview: Cytochrome P450 (CYP) enzymes are membrane-bound hemeproteins that play a key role in metabolism of drugs and xenobiotics. Assaying the effect of chemicals on CYP isozymes is useful to minimize the adverse drug reactions and toxicities in drug development process. […] The luciferin products formed are detected with a luciferin detection reagent, and the amount of light produced is proportional to CYP activity. […]
Records with an inconclusive call do not appear. Activity calls are given as the source filed them. The call rests on the fitted dose curve; in most records, active means well fitted inhibition curve with a large enough effect in the repeat runs; inconclusive means weak or mixed curves; inactive means no such curve, though single readings can be large or run the other way.
readout.kind: Potency

Guide cases for Potency, answers given:
{"columns": ["compound", "study.target", "Potency"],
 "data": [
  ["CC1(C)Oc2ncnc(N)c2N=C1c1ccc(C23CCC(CC(=O)O)(CC2)CC3)cc1", "Cytochrome P450 2C9 (Homo sapiens) (UniProt P11712)", "inactive"],
  ["NS(=O)(=O)Nc1ncnc(OCCOc2ncc(Br)cn2)c1-c1ccc(Br)cc1", "Cytochrome P450 2C9 (Homo sapiens) (UniProt P11712)", "4.77 µM (active)"],
  ["C[C@@H](O[C@H]1OCCN(Cc2nn(P(=O)(O)O)c(=O)[nH]2)[C@H]1c1ccc(F)cc1)c1cc(C(F)(F)F)cc(C(F)(F)F)c1", "Cytochrome P450 2C9 (Homo sapiens) (UniProt P11712)", "13.1 µM (active)"],
  ["COC(=O)C(Cc1ccc(OCCn2c(=O)sc3cc(C(=O)c4ccccc4)ccc32)cc1)C(=O)OC", "Cytochrome P450 2C9 (Homo sapiens) (UniProt P11712)", "2.13 µM (active)"]
]}

List reported Potency for each of these compounds:
1. O=S(=O)(Nc1ccccc1N1CCCCC1)c1ccc(Cl)s1
2. COc1cc(F)c(C(C)C)cc1-c1ccc(C(F)(F)F)cc1CN1C(=O)OC(c2cc(C(F)(F)F)cc(C(F)(F)F)c2)C1C (centres undefined)
3. CCC(C)CNCC(=O)N1CCC2SC=CC2C1COc1cccc(C)c1 (centres undefined)
4. CC(C)(O)c1ccc2c(c1)ncn2-c1cccc(-c2ccccc2C#N)c1

[A]
1: 5.35 µM (active); 2: inactive; 3: 12 µM (active); 4: 2.13 µM (active)

Consider the following items and state reported Potency for each.
1. CCCCc1c(-c2ccc(OC)cc2)[nH]c2nccnc12
2. CCNC(=O)Nc1ccc(-c2nc3c(c(N4CCOCC4C)n2)CCN(C2COC2)C3)cc1 (centres undefined)
3. COCC(=O)NC/C=C/c1ccc2ncnc(Nc3ccc(Oc4ccc(C)nc4)c(C)c3)c2c1
4. Nc1nc2c(cnn2CCCc2ccc(O)cc2)c2nc(-c3ccco3)nn12
5. Cn1ncc(Cl)c1-c1cc(C(=O)N[C@H](CN)Cc2ccc(F)c(F)c2)sc1Cl

[A]
1: inactive; 2: 16.9 µM (active); 3: 8.49 µM (active); 4: 3.01 µM (active); 5: 13.5 µM (active)

Okay, here is my list. What is Potency for each of these?
1. Cn1cc(-c2ccc3c(c2)CCN3C(=O)Cc2cccc(C(F)(F)F)c2)c2c(N)ncnc21
2. COc1c(F)cccc1C(=O)N1C[C@@H](C)CC[C@H]1CNc1ccc(Br)cn1
3. CCCCCCCCCCCCCCCC(=O)OC/C=C(C)/C=C/C=C(C)/C=C/C1=C(C)CCCC1(C)C
4. Oc1ccc(-c2cnc3ccc(NCc4ccco4)nn23)cc1
5. O=C(NCC1(N2CCN(c3ccccc3)CC2)CCOCC1)c1cccnc1Sc1ccccc1

[A]
1: 12 µM (active); 2: 5.35 µM (active); 3: 13.5 µM (active); 4: 0.756 µM (active); 5: 3.79 µM (active)
